biological target: hMOP Asn129K mutant (Homo sapiens, UniProt P35372, N129K); test: Gαi-mediated cAMP inhibition assay, hMOP Asn129K mutant; format: cell-based; conditions: HEK 293T cells, hMOP Asn129K mutant, cAMP assay, Gi
Sequence (P35372 whole entry N129K): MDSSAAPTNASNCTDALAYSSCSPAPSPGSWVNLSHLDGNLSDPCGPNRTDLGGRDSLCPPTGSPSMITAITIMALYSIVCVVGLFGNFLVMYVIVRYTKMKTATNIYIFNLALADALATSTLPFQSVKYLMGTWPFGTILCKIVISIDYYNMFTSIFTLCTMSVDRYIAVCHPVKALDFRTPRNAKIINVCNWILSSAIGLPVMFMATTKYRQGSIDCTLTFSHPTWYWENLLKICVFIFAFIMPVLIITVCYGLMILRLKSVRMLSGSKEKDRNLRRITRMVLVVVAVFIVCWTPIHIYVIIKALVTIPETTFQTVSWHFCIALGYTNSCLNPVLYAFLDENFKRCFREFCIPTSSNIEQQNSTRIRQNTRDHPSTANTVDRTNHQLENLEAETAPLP
measured_property: pEC50
Value format note: pEC50 is -log10 of concentration (mol/L); just state the number.

input: // map `CC[C@@H]1CN2CC[C@]3(Nc4cccc(OC)c4C3=O)[C@@H]2C[C@@H]1/C(=C\OC)C(=O)OC` to recorded pEC50 (system: hMOP Asn129K mutant (Homo sapiens, UniProt P35372, N129K))
output: 9.05

* * *

molecular target: hMOP H321F mutant (Homo sapiens, UniProt P35372, H321F); test: Gαi-mediated cAMP inhibition assay, hMOP H321F mutant; conditions: HEK 293T cells, hMOP H321F mutant, cAMP assay, Gi
Sequence (P35372 whole entry H321F): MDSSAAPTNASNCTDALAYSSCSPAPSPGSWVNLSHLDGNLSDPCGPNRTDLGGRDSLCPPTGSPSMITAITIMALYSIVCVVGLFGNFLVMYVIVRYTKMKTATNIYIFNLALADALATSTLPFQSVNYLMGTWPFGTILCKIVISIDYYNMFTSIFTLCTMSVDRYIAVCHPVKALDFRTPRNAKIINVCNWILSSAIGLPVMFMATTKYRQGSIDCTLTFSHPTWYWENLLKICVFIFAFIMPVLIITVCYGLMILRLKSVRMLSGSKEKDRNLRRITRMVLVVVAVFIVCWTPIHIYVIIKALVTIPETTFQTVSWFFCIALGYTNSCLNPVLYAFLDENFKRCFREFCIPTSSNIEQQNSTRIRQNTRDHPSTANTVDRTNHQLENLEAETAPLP
measured_property: pEC50
Value format note: pEC50 is -log10 of concentration (mol/L); just state the number.

input: Entry under review: `CC[C@@H]1CN2CC[C@]3(Nc4cccc(OC)c4C3=O)[C@@H]2C[C@@H]1/C(=C\OC)C(=O)OC` . Reported pEC50?
output: 7.77
